Tested on: PC-3 prostate
assay summary: NCI-60 one-dose screen, 48 h
test conditions: 10 µM unless noted
Compounds without any hit were thinned out: in the full panel of roughly 83,000, 20% have a hit. Calls of active or inactive are those of the source. The calls were made as follows: active = growth percent below 10; inactive = the rest.
Mark one answer only. Choices: active, inactive

Past entries and their recorded results:
| compound | label |
| --- | --- |
| O=C(CSc1nc2ccccc2[nH]1)Nc1cccc(Cl)c1 | inactive |
| CN1C(=O)CNC(=O)[C@H](NC(=O)c2nc3ccccc3cc2O)CSSC[C@H]1C(=O)NCCc1nc2ccccc2cc1O | inactive |
| Cc1ccc(C(C)C)cc1C(=O)C[n+]1ccccc1 | inactive |
| O=C(CS(=O)c1oc(-c2cccs2)nc1S(=O)(=O)c1ccc(Br)cc1)c1ccccc1 (stereo unspecified) | inactive |
| CC1(C)C2CC1C1(/C=N\Nc3ccccc3)C(C2)C(C#N)(C#N)C1(C#N)C#N (stereo unspecified) | inactive |
| O=[N+]([O-])c1ccc(Oc2nc(Nc3ccc(O[C@H]4CO[C@H]5[C@@H]4OC[C@@H]5O)c(Cl)c3)ncc2F)c(Cl)c1 | inactive |

-- ask # fetch the recorded call for O=C1CCC/C=C\C[C@H]2C=CC(=O)/C2=C/C[C@H](CCc2cccc(C(F)(F)F)c2)O1 here
-- reply active

-- ask Again, but for COc1ccc(-c2nnc(COc3ccc(Cl)cc3Cl)o2)cc1OC
-- reply inactive

-- ask And then C[C@H](C(=O)Nc1ccc(S(N)(=O)=O)cc1)S(=O)(=O)c1ccccc1 , what is it?
-- reply inactive

-- ask Next compound up: O=S(=O)(Nc1ccc(-c2nc(-c3cccc(OCCN4CCOCC4)c3)c(-c3ccnc(Br)c3)[nH]2)cc1)c1ccccc1
-- reply inactive
